Listing: S E(kdis) of selected binders
Target: T1, human p40-His (human, UniProt P29460 23-328)
T1 construct: Made by Akeso Biopharma; construct limits and tag not described; also called human IL-12/IL-23 p40 protein domain; human IL-12/IL-23 p40; not shown: His tag
T1 sequence (looked up): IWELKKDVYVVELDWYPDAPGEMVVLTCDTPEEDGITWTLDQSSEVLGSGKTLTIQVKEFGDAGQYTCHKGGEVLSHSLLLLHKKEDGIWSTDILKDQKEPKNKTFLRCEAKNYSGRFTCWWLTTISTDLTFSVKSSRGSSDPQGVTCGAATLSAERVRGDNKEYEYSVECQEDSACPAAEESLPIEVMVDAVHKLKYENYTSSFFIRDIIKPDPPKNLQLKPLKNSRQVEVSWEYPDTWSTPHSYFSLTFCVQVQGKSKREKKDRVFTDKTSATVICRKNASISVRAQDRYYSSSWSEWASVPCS
Test: BLI (Fortebio), p40-His on HIS1K sensor, antibody 5-0.31 nM, 37 °C, 1:1 fit
Dear colleague, please return just the value in s⁻¹, with no unit written.

Example entries begin here.
### Prompt Find the recorded S E(kdis) belonging to H5L14 (antibody, human IgG1, kappa, V domains shown, human IgG1 / kappa constant regions; also called humanized antibody H5L14) VH: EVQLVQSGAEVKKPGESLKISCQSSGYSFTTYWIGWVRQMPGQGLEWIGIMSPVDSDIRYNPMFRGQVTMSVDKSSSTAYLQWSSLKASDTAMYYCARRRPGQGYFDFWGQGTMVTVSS VL: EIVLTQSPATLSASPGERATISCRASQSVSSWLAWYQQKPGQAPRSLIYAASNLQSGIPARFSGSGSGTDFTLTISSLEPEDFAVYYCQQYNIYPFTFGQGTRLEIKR and report it.
### Response 0.000158

### Prompt Find the recorded S E(kdis) belonging to H5L11 (antibody, human IgG1, kappa, V domains shown, human IgG1 / kappa constant regions; also called humanized antibody H5L11) VH: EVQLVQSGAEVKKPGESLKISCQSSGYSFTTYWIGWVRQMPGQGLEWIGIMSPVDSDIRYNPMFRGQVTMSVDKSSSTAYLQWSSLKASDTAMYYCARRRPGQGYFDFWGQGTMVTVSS VL: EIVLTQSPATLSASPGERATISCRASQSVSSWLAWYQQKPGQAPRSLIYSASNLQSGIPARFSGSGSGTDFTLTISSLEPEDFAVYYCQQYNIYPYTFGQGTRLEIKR and report it.
### Response 0.000144

### Prompt Find the recorded S E(kdis) belonging to H5L12 (antibody, human IgG1, kappa, V domains shown, human IgG1 / kappa constant regions; also called humanized antibody H5L12) VH: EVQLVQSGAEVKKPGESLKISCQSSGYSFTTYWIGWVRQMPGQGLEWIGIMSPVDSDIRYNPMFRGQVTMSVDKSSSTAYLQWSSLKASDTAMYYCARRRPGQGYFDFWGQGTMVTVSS VL: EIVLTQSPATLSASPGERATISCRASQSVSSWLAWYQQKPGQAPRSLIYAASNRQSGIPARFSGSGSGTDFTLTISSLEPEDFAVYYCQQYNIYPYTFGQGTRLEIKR and report it.
### Response 0.000124

Next up:
### Prompt Find the recorded S E(kdis) belonging to ustekinumab (antibody, V domains shown) VH: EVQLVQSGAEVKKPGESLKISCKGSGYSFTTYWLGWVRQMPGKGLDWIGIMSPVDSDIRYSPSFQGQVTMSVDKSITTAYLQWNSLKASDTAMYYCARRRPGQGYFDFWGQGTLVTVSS VL: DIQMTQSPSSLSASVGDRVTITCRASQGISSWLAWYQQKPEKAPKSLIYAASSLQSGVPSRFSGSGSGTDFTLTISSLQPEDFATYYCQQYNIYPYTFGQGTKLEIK and report it.
### Response 0.000181

Sourced from patent US20220298235A1
